# CONDITION DETAILS: 343.15 K; 101.33 kPa; Liquid; Pulse-echo method
# speed of sound per record follows

MOLECULE	speed of sound [m/s]
Cc1ccccc1O [2-methylphenol]	1347.7
Cc1ccc(O)cc1 [4-methylphenol]	1346.2
Oc1ccccc1 [phenol]	1360.6
Cc1cccc(O)c1 [3-methylphenol]	1341.8
COc1ccccc1O [2-methoxyphenol]	1357.1
COC(=O)c1ccccc1O [methyl 2-hydroxybenzoate]	1250.9
C=CCc1ccc(O)c(OC)c1 [2-hydroxy-5-allylanisole]	1317.8

====

# speed of sound per record follows
# CONDITION DETAILS: 298.15 K; 101.33 kPa; Liquid; Pulse-echo method

MOLECULE	speed of sound (m/s)
COC(=O)c1ccccc1O [methyl 2-hydroxybenzoate]	1410.6
C=CCc1ccc(O)c(OC)c1 [2-hydroxy-5-allylanisole]	1478.7
COc1ccccc1O [2-methoxyphenol]	1528.7
Cc1cccc(O)c1 [3-methylphenol]	1481.9
Cc1ccc(O)cc1 [4-methylphenol]	1487.2
Cc1ccccc1O [2-methylphenol]	1505.5
